Listed here: items and their measured shrunken log2 fold change.
# Test system: Escherichia coli TOP10
# method.description: shrunken log2 fold change of peptide-encoding DNA abundance (4.5 h post-induction vs induction); higher = less antimicrobial activity (less host growth inhibition)
# condition.details: time post-induction: 4.5 h; library: site-saturation at positions 5, 18, 19, 20

// solved cases for shrunken log2 fold change follow
- primary.sequence: "RRIRTRPPRLPRPRPRPHHNPRP"
  measurement.target: "Escherichia coli TOP10"
  result: -0.795
- primary.sequence: "RRIRYRPPRLPRPRPRPSGFPRP"
  measurement.target: "Escherichia coli TOP10"
  result: -0.99
- primary.sequence: "RRIRQRPPRLPRPRPRPSPEPRP"
  measurement.target: "Escherichia coli TOP10"
  result: -0.0086
- primary.sequence: "RRIRLRPPRLPRPRPRPGCQPRP"
  measurement.target: "Escherichia coli TOP10"
  result: -0.00705
- primary.sequence: "RRIRHRPPRLPRPRPRPCSDPRP"
  measurement.target: "Escherichia coli TOP10"
  result: -0.101

// query GET shrunken log2 fold change where system = Escherichia coli TOP10 and item = RRIRVRPPRLPRPRPRPWWFPRP
// result -0.307

// query GET shrunken log2 fold change where system = Escherichia coli TOP10 and item = RRIRIRPPRLPRPRPRPKKQPRP
// result -0.194

// query GET shrunken log2 fold change where system = Escherichia coli TOP10 and item = RRIRCRPPRLPRPRPRPVSDPRP
// result 0.0185

// query GET shrunken log2 fold change where system = Escherichia coli TOP10 and item = RRIRFRPPRLPRPRPRPWEFPRP
// result -0.12

###

Listed here: items and their measured shrunken log2 fold change.
# Tested on: Escherichia coli TOP10
# method.description: shrunken log2 fold change of peptide-encoding DNA abundance (4.5 h post-induction vs induction); higher = less antimicrobial activity (less host growth inhibition)
# condition.details: time post-induction: 4.5 h; library: site-saturation at positions 5, 18, 19, 20
Form field (numeric): enter value without unit.

// solved cases for shrunken log2 fold change follow
- primary.sequence: "RRIRCRPPRLPRPRPRPSPGPRP"
  shrunken log2 fold change: 0.0883
- primary.sequence: "RRIRGRPPRLPRPRPRPSTHPRP"
  shrunken log2 fold change: 0.159
- primary.sequence: "RRIRERPPRLPRPRPRPHIAPRP"
  shrunken log2 fold change: -0.099
- primary.sequence: "RRIRFRPPRLPRPRPRPEKSPRP"
  shrunken log2 fold change: -0.101
- primary.sequence: "RRIRERPPRLPRPRPRPHPRPRP"
  shrunken log2 fold change: 0.278
- primary.sequence: "RRIRRRPPRLPRPRPRPHRKPRP"
  shrunken log2 fold change: -0.247
- primary.sequence: "RRIRNRPPRLPRPRPRPPYRPRP"
  shrunken log2 fold change: -0.11
- primary.sequence: "RRIRYRPPRLPRPRPRPRPCPRP"
  shrunken log2 fold change: -0.117
- primary.sequence: "RRIRKRPPRLPRPRPRPDKIPRP"
  shrunken log2 fold change: 0.0555
- primary.sequence: "RRIRQRPPRLPRPRPRPDRLPRP"
  shrunken log2 fold change: -0.0692

// query GET shrunken log2 fold change where system = Escherichia coli TOP10 and item = RRIRYRPPRLPRPRPRPKRKPRP
// result -0.128

// query GET shrunken log2 fold change where system = Escherichia coli TOP10 and item = RRIRNRPPRLPRPRPRPNIWPRP
// result -0.636

// query GET shrunken log2 fold change where system = Escherichia coli TOP10 and item = RRIRYRPPRLPRPRPRPPLLPRP
// result -0.385

// query GET shrunken log2 fold change where system = Escherichia coli TOP10 and item = RRIRFRPPRLPRPRPRPERMPRP
// result 0.124

// query GET shrunken log2 fold change where system = Escherichia coli TOP10 and item = RRIRNRPPRLPRPRPRPPDWPRP
// result 0.641

// query GET shrunken log2 fold change where system = Escherichia coli TOP10 and item = RRIRDRPPRLPRPRPRPIEWPRP
// result 0.015

// query GET shrunken log2 fold change where system = Escherichia coli TOP10 and item = RRIRWRPPRLPRPRPRPSYMPRP
// result -0.502

// query GET shrunken log2 fold change where system = Escherichia coli TOP10 and item = RRIRFRPPRLPRPRPRPQPLPRP
// result -0.0304

// query GET shrunken log2 fold change where system = Escherichia coli TOP10 and item = RRIRTRPPRLPRPRPRPCYVPRP
// result -0.89

// query GET shrunken log2 fold change where system = Escherichia coli TOP10 and item = RRIRWRPPRLPRPRPRPQKFPRP;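 further: peptides expressed intracellularly from a pBAD plasmid library in pooled LB shake-flask culture, induced with 0.3% L-arabinose, DNA abundance read by NGS, three biological replicates, DESeq2 with apeglm shrinkage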
// result -0.0956
